Recorded values, source paper PMC2755957.

# assay.system: Δ^1–24-L-PGDS + P110A (Mus musculus, UniProt O09114, P110A)
# measurement.notes: biochemical
pKd: −log10 of the molar value.
measured.attribute: pKd

compound="CCCCC[C@H](O)/C=C/[C@H]1[C@@H]2CO[C@@H](C2)[C@@H]1C/C=C\\CCCC(=O)O [U-44069]" assay_system="Δ^1–24-L-PGDS + P110A (Mus musculus, UniProt O09114, P110A)" reported_result=4.87

====

# assay.system: mouse Δ1–24-L-PGDS (lipocalin type prostaglandin D synthase) (Mus musculus, UniProt O09114, H116A)
# Sequence (O09114 25-189 H116A): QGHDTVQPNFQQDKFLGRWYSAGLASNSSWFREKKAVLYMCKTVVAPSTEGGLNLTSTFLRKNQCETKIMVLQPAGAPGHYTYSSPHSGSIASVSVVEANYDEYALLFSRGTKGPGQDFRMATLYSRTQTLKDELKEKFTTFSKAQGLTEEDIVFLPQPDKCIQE
# measurement.notes: surface plasmon resonance
# Type: binding
measured.attribute: Kd (µM)

given_smiles=CCCCC[C@H](O)/C=C/[C@@H]1[C@@H](C/C=C\CCCC(=O)O)[C@H]2CO[C@@H]1C2 unit_of_measurement=µM reported_result=48.5
